target: 5-hydroxytryptamine receptor 2C (Rattus norvegicus)
Sequence (P08909 whole entry): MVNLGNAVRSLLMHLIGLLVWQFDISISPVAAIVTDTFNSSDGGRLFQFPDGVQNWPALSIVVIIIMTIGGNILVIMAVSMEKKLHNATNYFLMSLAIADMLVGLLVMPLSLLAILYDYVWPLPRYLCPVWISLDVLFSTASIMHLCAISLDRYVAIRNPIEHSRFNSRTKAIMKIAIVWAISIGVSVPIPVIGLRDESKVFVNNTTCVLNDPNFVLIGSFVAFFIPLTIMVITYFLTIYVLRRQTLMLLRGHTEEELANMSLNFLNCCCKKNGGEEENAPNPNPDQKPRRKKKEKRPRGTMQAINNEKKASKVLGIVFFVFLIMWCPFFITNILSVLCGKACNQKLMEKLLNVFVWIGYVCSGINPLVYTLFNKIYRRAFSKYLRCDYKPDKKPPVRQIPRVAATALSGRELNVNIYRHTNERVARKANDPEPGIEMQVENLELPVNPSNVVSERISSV
Recorded metric: Ki (nM)

compound="CN1CCCCC1CCN1c2ccccc2Sc2ccc([S+](C)[O-])cc21 (single isomer, unassigned; 2)" numeric_result=412

###

Assay system D(2) dopamine receptor (Homo sapiens); read-out recorded as IC50.
Recorded metric: IC50 (nM)

compound=CN1CCCC[C@@H]1CCN1c2ccccc2Sc2ccc([S@@](C)=O)cc21 unit_of_measurement=nM numeric_result=63
compound="CN1CCCCC1CCN1c2ccccc2Sc2ccc([S+](C)[O-])cc21 (single isomer, unassigned; 3)" unit_of_measurement=nM numeric_result=837

###

target: 5-hydroxytryptamine receptor 1A (Homo sapiens, UniProt P08908); assay: Binding affinity towards human 5-hydroxytryptamine 1A receptor was determined by using [3H]8-OH-DPAT as radioligand
Sequence (P08908 whole entry): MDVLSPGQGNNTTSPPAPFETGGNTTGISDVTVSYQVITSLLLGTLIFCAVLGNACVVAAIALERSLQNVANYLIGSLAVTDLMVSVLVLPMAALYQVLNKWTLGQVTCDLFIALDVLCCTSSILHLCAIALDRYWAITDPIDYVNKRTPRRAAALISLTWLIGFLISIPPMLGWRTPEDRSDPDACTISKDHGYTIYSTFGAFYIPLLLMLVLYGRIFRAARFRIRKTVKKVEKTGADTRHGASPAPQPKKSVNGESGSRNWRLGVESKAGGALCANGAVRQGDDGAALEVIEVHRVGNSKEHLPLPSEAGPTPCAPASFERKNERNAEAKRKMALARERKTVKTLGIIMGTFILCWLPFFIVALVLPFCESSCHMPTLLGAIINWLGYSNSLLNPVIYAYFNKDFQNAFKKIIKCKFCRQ
// values below are reported Ki
Recorded metric: Ki (nM)

molecule="CN1CCCCC1CCN1c2ccccc2Sc2ccc([S+](C)[O-])cc21 (single isomer, unassigned; 2)" unit_of_measurement=nM numeric_result=105
molecule="CN1CCCCC1CCN1c2ccccc2Sc2ccc([S+](C)[O-])cc21 (single isomer, unassigned; 3)" unit_of_measurement=nM numeric_result=349
molecule=CN1CCCC[C@H]1CCN1c2ccccc2Sc2ccc([S@](C)=O)cc21 unit_of_measurement=nM numeric_result=395

###

Entries and their pKi
biological target: D(1A) dopamine receptor (Homo sapiens)
pKi: −log10 of the molar value.
Recorded metric: pKi

compound="CN1CCCCC1CCN1c2ccccc2Sc2ccc([S+](C)[O-])cc21 (single isomer, unassigned; 3)" target_under_test="D(1A) dopamine receptor (Homo sapiens)" numeric_result=5.71
compound=CN1CCCC[C@@H]1CCN1c2ccccc2Sc2ccc([S@@](C)=O)cc21 target_under_test="D(1A) dopamine receptor (Homo sapiens)" numeric_result=6.50

###

pKi: −log10 of the molar value.
Let's go through some pKi measurements on D(2) dopamine receptor (Homo sapiens, UniProt P14416) together.
Sequence (P14416 whole entry): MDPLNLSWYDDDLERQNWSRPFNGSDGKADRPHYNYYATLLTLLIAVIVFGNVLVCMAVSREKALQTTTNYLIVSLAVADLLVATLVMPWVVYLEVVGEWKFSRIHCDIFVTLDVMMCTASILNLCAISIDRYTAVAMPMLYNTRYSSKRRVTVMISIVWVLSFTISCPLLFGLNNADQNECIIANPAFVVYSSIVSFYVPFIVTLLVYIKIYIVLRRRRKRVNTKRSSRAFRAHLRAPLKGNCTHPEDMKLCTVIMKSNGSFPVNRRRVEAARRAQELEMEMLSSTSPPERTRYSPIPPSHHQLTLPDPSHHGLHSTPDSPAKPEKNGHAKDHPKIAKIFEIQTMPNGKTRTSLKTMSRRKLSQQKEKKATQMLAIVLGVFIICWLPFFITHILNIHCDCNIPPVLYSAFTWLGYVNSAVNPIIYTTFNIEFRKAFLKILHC
Recorded metric: pKi

molecule="CN1CCCCC1CCN1c2ccccc2Sc2ccc([S+](C)[O-])cc21 (single isomer, unassigned; 2)" numeric_result=8.66
molecule=CN1CCCC[C@@H]1CCN1c2ccccc2Sc2ccc([S@@](C)=O)cc21 numeric_result=8.92

###

biological target: D(1A) dopamine receptor (Homo sapiens, UniProt P21728); experiment: Antagonism of D1 dopamine receptor of human was determined in C6D1 low-density cells by using cyclic AMP assay
Sequence (P21728 whole entry): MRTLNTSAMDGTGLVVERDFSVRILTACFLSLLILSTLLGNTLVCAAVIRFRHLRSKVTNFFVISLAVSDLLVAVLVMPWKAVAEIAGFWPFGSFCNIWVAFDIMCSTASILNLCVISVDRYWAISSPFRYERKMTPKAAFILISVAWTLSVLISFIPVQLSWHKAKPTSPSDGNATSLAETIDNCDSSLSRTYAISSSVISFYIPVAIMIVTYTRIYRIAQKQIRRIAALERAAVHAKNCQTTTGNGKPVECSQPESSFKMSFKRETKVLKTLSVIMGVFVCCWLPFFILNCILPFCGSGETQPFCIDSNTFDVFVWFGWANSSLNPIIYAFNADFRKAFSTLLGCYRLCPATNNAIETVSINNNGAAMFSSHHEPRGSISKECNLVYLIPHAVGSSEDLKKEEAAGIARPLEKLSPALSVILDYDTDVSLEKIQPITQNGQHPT
Recorded metric: IC50

compound=CN1CCCC[C@H]1CCN1c2ccccc2Sc2ccc([S@](C)=O)cc21 target_under_test="D(1A) dopamine receptor (Homo sapiens, UniProt P21728)" result="1250 nM"
compound=CN1CCCC[C@@H]1CCN1c2ccccc2Sc2ccc([S@@](C)=O)cc21 target_under_test="D(1A) dopamine receptor (Homo sapiens, UniProt P21728)" result="460 nM"
compound="CN1CCCCC1CCN1c2ccccc2Sc2ccc([S+](C)[O-])cc21 (single isomer, unassigned; 2)" target_under_test="D(1A) dopamine receptor (Homo sapiens, UniProt P21728)" result="137 nM"

###

Quick list: Ki per entry.
target: D(2) dopamine receptor (Homo sapiens)
Recorded metric: Ki (nM)

compound="CN1CCCCC1CCN1c2ccccc2Sc2ccc([S+](C)[O-])cc21 (single isomer, unassigned; 2)" target_under_test="D(2) dopamine receptor (Homo sapiens)" numeric_result=1540
compound=CN1CCCC[C@@H]1CCN1c2ccccc2Sc2ccc([S@@](C)=O)cc21 target_under_test="D(2) dopamine receptor (Homo sapiens)" numeric_result=1840
